Where these numbers come from: PubChem BioAssay AID720

Hi there, I'd appreciate the recorded inhibition for every entry that follows.
- Target or system: Ephrin type-B receptor 4 (Homo sapiens) (UniProt P54760)
- Sequence (P54760 whole entry, looked up): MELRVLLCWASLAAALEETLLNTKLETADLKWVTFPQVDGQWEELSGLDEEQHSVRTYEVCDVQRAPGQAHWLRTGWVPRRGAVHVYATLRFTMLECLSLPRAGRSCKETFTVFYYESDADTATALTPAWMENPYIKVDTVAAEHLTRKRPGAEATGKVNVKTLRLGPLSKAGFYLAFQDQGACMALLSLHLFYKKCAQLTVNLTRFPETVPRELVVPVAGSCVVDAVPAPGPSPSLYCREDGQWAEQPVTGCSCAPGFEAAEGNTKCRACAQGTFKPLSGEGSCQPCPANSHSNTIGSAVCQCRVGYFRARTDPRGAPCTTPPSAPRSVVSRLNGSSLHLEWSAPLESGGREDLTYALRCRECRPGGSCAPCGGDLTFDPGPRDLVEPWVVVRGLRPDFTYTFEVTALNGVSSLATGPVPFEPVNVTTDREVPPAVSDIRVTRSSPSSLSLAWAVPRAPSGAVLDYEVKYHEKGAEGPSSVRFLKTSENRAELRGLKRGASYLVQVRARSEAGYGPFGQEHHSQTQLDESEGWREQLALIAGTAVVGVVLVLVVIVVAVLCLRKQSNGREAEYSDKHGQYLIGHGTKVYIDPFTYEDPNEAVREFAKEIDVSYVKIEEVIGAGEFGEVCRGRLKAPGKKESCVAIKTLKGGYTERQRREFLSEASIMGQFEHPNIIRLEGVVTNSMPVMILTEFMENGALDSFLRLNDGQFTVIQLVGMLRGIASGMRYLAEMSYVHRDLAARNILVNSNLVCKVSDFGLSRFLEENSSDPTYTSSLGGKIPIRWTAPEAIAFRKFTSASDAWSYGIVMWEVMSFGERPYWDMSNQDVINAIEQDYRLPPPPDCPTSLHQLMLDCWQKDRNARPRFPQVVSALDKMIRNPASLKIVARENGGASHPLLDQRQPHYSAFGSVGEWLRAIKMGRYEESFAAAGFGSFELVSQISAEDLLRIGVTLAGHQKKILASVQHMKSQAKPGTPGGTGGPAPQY
- Test method notes: blockers of EphB4 ligand binding – biochemical, TNYL-RAW peptide probe, fluorescence polarization, primary screen (AID 720);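 note: 0% = DMSO wells and 100% = excess unlabeled TNYL-RAW peptide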
- Protocol conditions: EphB4 LBD / TNYL-RAW-Alexa532 peptide, at 7 µM, stronger effect = higher value
About 140 (0.14%) of roughly 97,000 compounds were called active. What follows is part of a selection rich in actives, with near analogues and random picks from the rest.
The reply should be a number in %, with the unit left off.

Query block: What value of inhibition on Ephrin type-B receptor 4 (Homo sapiens) (UniProt P54760) does "Cc1c(NC(=O)/C=C/C(=O)O)cccc1[N+](=O)[O-]" have?
Result block: -6.42

Query block: GET /values?readout=inhibition&system=Ephrin type-B receptor 4 (Homo sapiens) (UniProt P54760)&item= "Cn1c2ccccc2n2c(=O)c(=O)n(CC(=O)c3ccc(F)cc3)nc12"
Result block: 0.04

Query block: What value of inhibition on Ephrin type-B receptor 4 (Homo sapiens) (UniProt P54760) does O=C(NCC(=O)N(Cc1cccs1)C(C(=O)NC1CCCCC1)c1ccco1)c1cccs1 (stereo unspecified) have?
Result block: -1.39

Query block: Tell me reported inhibition for Cc1cc(C)nc(SC(C)C(=O)N/N=C/c2cccs2)n1 (stereo unspecified) , tested with Ephrin type-B receptor 4 (Homo sapiens) (UniProt P54760).
Result block: 2.66

Query block: Form entry - test system: Ephrin type-B receptor 4 (Homo sapiens) (UniProt P54760); read-out: inhibition; compound: "c1ccc(-c2ccnc3nc(-n4cccc4)nn23)cc1"
Result block: -2.67

Query block: Form entry - test system: Ephrin type-B receptor 4 (Homo sapiens) (UniProt P54760); read-out: inhibition; compound: "CCOc1cc(N2CCOCC2)c(OCC)cc1NC(=O)COC(=O)[C@H](Cc1c[nH]c2ccccc12)NC(C)=O"
Result block: 5.55

Query block: Provide the documented inhibition with Ephrin type-B receptor 4 (Homo sapiens) (UniProt P54760) as the system for O=C(NCCCCc1ccccc1)C1CC(c2ccc([N+](=O)[O-])cc2)=NO1 (stereo unspecified)
Result block: 1.72

Query block: API: value(readout=inhibition, system=Ephrin type-B receptor 4 (Homo sapiens) (UniProt P54760)) for record CC(C)C(=O)NC(NC(=S)NC1CCS(=O)(=O)C1)C(Cl)(Cl)Cl (stereo unspecified)
Result block: 2.04

Query block: What value of inhibition on Ephrin type-B receptor 4 (Homo sapiens) (UniProt P54760) does "Cc1ccsc1/C=C1\SC(N2CCOCC2)=NC1=O" have?
Result block: -4.07

Query block: Fill in the recorded inhibition for this compound, with Ephrin type-B receptor 4 (Homo sapiens) (UniProt P54760) as test system: Cc1ccc(CCN2CC(C(=O)O)CC2=O)cc1 (stereo unspecified)
Result block: -3.41

Query block: Write down the reported inhibition of CCC(C)(C(=O)NC1CCCCC1)N(C)C(=O)c1ccc2c(c1)OCO2 (stereo unspecified) , test system: Ephrin type-B receptor 4 (Homo sapiens) (UniProt P54760).
Result block: 3.83

====

Hi there, I'd appreciate the recorded inhibition for every entry that follows.
- Target or system: Ephrin type-B receptor 4 (Homo sapiens)
- Test method notes: blockers of EphB4 ligand binding – biochemical, TNYL-RAW peptide probe, fluorescence polarization, primary screen (AID 720);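 note: 0% = DMSO wells and 100% = excess unlabeled TNYL-RAW peptide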
- Protocol conditions: EphB4 LBD / TNYL-RAW-Alexa532 peptide, at 7 µM, stronger effect = higher value
Hit rate of the full screen: of about 97,000 compounds, about 140 (0.14%) were called active. For the sample, actives were picked, then their nearest neighbours and some compounds at random.
Return type: number; implicit unit %.

Query block: Give the reported inhibition for CC(C)CNC(=O)CC(c1ccccc1)c1c(O)ccc2ccccc12 (stereo unspecified) (system: Ephrin type-B receptor 4 (Homo sapiens)).
Result block: 2.89

Query block: Find the measured inhibition: item "C=CCOc1cccc(CNn2cn[nH]c2=S)c1" , target or system Ephrin type-B receptor 4 (Homo sapiens).
Result block: -3.4

Query block: Give inhibition (Ephrin type-B receptor 4 (Homo sapiens)) of the following compound: "O=S(=O)(c1ccc(Br)cc1)n1ccc2ccccc21"
Result block: 6.94

Query block: Give the reported inhibition for "S=c1[nH]nc(CSCc2ccc(Cl)cc2Cl)n1-c1ccccc1" (system: Ephrin type-B receptor 4 (Homo sapiens)).
Result block: 8.29

Query block: Lab request: please report inhibition under test system Ephrin type-B receptor 4 (Homo sapiens) for "C=CCNC(=O)c1sc(SC)cc1-c1ccc(Cl)cc1"
Result block: -2.13

Query block: Provide value of inhibition for this record tested with Ephrin type-B receptor 4 (Homo sapiens): "COc1ccc(C(=O)OCC(=O)NCC2CCCCC2)cc1S(=O)(=O)N1CCCc2ccccc21"
Result block: -0.59

Query block: Request: inhibition, test system Ephrin type-B receptor 4 (Homo sapiens), entry CCCOC(=O)c1[nH]c2c(c1C)C(=O)CC(c1cccs1)C2 (stereo unspecified)
Result block: 3.13

Query block: Request body: readout inhibition, system Ephrin type-B receptor 4 (Homo sapiens), query "Cc1ccc(NC(=O)CSCC(=O)N2CCOCC2)cc1" . Return the value.
Result block: 1.18

Query block: Request: inhibition, test system Ephrin type-B receptor 4 (Homo sapiens), entry "CC(C)Cc1oc(C(=O)O)cc1CN"
Result block: -0.3

Query block: Request - read-out inhibition | tested on Ephrin type-B receptor 4 (Homo sapiens) | compound CCOC(=O)c1[nH]c(C)c(C(=O)OCC(=O)N2c3ccccc3CC2C)c1C (stereo unspecified)
Result block: 2.53

Query block: Which measured inhibition belongs to COc1ccc(C2C(C(C)=O)=C(O)C(=O)N2Cc2cccnc2)cc1 (stereo unspecified) , tested on Ephrin type-B receptor 4 (Homo sapiens)?
Result block: 1.74

Query block: What inhibition appears in the records for this compound with Ephrin type-B receptor 4 (Homo sapiens)? O=C1CCCC2=C1C(c1ccccc1)n1c(s/c(=C/c3cccc(F)c3)c1=O)=N2 (stereo unspecified)
Result block: 1.22

Query block: Could you share what inhibition was measured for "Cc1[nH]n(-c2ccccc2)c(=O)c1CCOC(=O)c1ccc(C(F)(F)F)cc1" , tested on Ephrin type-B receptor 4 (Homo sapiens)?
Result block: 5.95

Query block: GET /values?readout=inhibition&system=Ephrin type-B receptor 4 (Homo sapiens)&item= "O=C1c2ccccc2C(=O)N1CCCc1nc(-c2ccccc2)no1"
Result block: 5.53

Query block: Give inhibition (Ephrin type-B receptor 4 (Homo sapiens)) of the following compound: "O=[N+]([O-])c1ccc(N2CCN(S(=O)(=O)c3ccc4ccccc4c3)CC2)cc1NCc1ccco1"
Result block: 0.12

Query block: Form field - read-out: inhibition; system: Ephrin type-B receptor 4 (Homo sapiens); submitted item: "CN(C)/C=C(/C(=O)c1ccc(Cl)cc1)S(=O)(=O)c1ccccc1"
Result block: -11.6
